assay: physchem; conditions: sodium acetate buffer, pH 4, aqueous buffer
measuredAttribute: solubility (µg/mL)
Respond numerically; units are µg/mL and should not be typed.

Reported solubility of COc1ccc2[nH]c3c(c2c1)CCN[C@]31CS[C@@H]2c3c(OC(C)=O)c(C)c4c(c3[C@H](COC1=O)N1[C@@H]2[C@H]2c3c(cc(C)c(OC)c3O)C[C@@H]([C@@H]1O)N2C)OCO4 : 940

* * *

assay: Maximum solubility of lurbinectedin in different molarities of lactic acid; type: physicochemical; details: lactic acid solution, aqueous buffer, 0.05M lactic acid
measuredAttribute: solubility (µg/mL)
Respond numerically; units are µg/mL and should not be typed.

Reported solubility of COc1ccc2[nH]c3c(c2c1)CCN[C@]31CS[C@@H]2c3c(OC(C)=O)c(C)c4c(c3[C@H](COC1=O)N1[C@@H]2[C@H]2c3c(cc(C)c(OC)c3O)C[C@@H]([C@@H]1O)N2C)OCO4 [lurbinectedin, Lurbinectedin] : 7200

* * *

assay: physchem; details: sodium succinate buffer, pH 4, aqueous buffer
measuredAttribute: solubility (mg/mL)
Respond numerically; units are mg/mL and should not be typed.

Reported solubility of COc1ccc2[nH]c3c(c2c1)CCN[C@]31CS[C@@H]2c3c(OC(C)=O)c(C)c4c(c3[C@H](COC1=O)N1[C@@H]2[C@H]2c3c(cc(C)c(OC)c3O)C[C@@H]([C@@H]1O)N2C)OCO4 : 0.97

* * *

Below, each of the compounds is paired with its reported Impurity RRT aprox 1.10-1.11 value.
assay: Analytical results and impurity profile of batches of Form A and Form B of lurbinectedin; assay type: physicochemical; conditions: impurity profile, batches of Form B
Respond numerically; units are % area and should not be typed.

Consider the worked cases shown below.
compound	assayResult
COc1ccc2[nH]c3c(c2c1)CCN[C@]31CS[C@@H]2c3c(OC(C)=O)c(C)c4c(c3[C@H](COC1=O)N1[C@@H]2[C@H]2c3c(cc(C)c(OC)c3O)C[C@@H]([C@@H]1O)N2C)OCO4 [Batch P05]	0.07
COc1ccc2[nH]c3c(c2c1)CCN[C@]31CS[C@@H]2c3c(OC(C)=O)c(C)c4c(c3[C@H](COC1=O)N1[C@@H]2[C@H]2c3c(cc(C)c(OC)c3O)C[C@@H]([C@@H]1O)N2C)OCO4 [Batch R04]	0.07
COc1ccc2[nH]c3c(c2c1)CCN[C@]31CS[C@@H]2c3c(OC(C)=O)c(C)c4c(c3[C@H](COC1=O)N1[C@@H]2[C@H]2c3c(cc(C)c(OC)c3O)C[C@@H]([C@@H]1O)N2C)OCO4 [Batch 1799069]	0.06

Next up:
Reported Impurity RRT aprox 1.10-1.11 of COc1ccc2[nH]c3c(c2c1)CCN[C@]31CS[C@@H]2c3c(OC(C)=O)c(C)c4c(c3[C@H](COC1=O)N1[C@@H]2[C@H]2c3c(cc(C)c(OC)c3O)C[C@@H]([C@@H]1O)N2C)OCO4 [Batch R01] : 0.09

* * *

assay: physchem; settings: sodium acetate buffer, pH 3, aqueous buffer
measuredAttribute: solubility (µg/mL)
Respond numerically; units are µg/mL and should not be typed.

Reported solubility of COc1ccc2[nH]c3c(c2c1)CCN[C@]31CS[C@@H]2c3c(OC(C)=O)c(C)c4c(c3[C@H](COC1=O)N1[C@@H]2[C@H]2c3c(cc(C)c(OC)c3O)C[C@@H]([C@@H]1O)N2C)OCO4 : 950

* * *

assay: Maximum solubility of lurbinectedin in different molarities of lactic acid; format: physicochemical; settings: lactic acid solution, aqueous buffer, 0.5M lactic acid
measuredAttribute: solubility
Please give the number followed by its unit.

Reported solubility of COc1ccc2[nH]c3c(c2c1)CCN[C@]31CS[C@@H]2c3c(OC(C)=O)c(C)c4c(c3[C@H](COC1=O)N1[C@@H]2[C@H]2c3c(cc(C)c(OC)c3O)C[C@@H]([C@@H]1O)N2C)OCO4 [lurbinectedin, Lurbinectedin] : 90.4 mg/mL

* * *

test: physchem; conditions: sodium succinate buffer, pH 3, aqueous buffer
measuredAttribute: solubility (µg/mL)
Respond numerically; units are µg/mL and should not be typed.

Reported solubility of COc1ccc2[nH]c3c(c2c1)CCN[C@]31CS[C@@H]2c3c(OC(C)=O)c(C)c4c(c3[C@H](COC1=O)N1[C@@H]2[C@H]2c3c(cc(C)c(OC)c3O)C[C@@H]([C@@H]1O)N2C)OCO4 : 960

* * *

assay: physchem; details: sodium acetate buffer, pH 5, aqueous buffer
measuredAttribute: solubility (µg/mL)
Respond numerically; units are µg/mL and should not be typed.

Reported solubility of COc1ccc2[nH]c3c(c2c1)CCN[C@]31CS[C@@H]2c3c(OC(C)=O)c(C)c4c(c3[C@H](COC1=O)N1[C@@H]2[C@H]2c3c(cc(C)c(OC)c3O)C[C@@H]([C@@H]1O)N2C)OCO4 [lurbinectedin, Lurbinectedin] : 30

* * *

assay: Phase 2 trial of lurbinectedin monotherapy: plasma pharmacokinetics; type: in vivo; settings: human, intravenous, 3.2 mg/m^2 as 1-hour infusion
measuredAttribute: AUC(0-inf)

Reported AUC(0-inf) of COc1ccc2[nH]c3c(c2c1)CCN[C@]31CS[C@@H]2c3c(OC(C)=O)c(C)c4c(c3[C@H](COC1=O)N1[C@@H]2[C@H]2c3c(cc(C)c(OC)c3O)C[C@@H]([C@@H]1O)N2C)OCO4 : ~551 ng·h/mL

* * *

assay: Analytical results and impurity profile of batches of Form A and Form B of lurbinectedin; type: physicochemical; details: batches of Form B of lurbinectedin
measuredAttribute: Water Content (% w/w)
Respond numerically; units are % w/w and should not be typed.

compound	Water Content [% w/w]
COc1ccc2[nH]c3c(c2c1)CCN[C@]31CS[C@@H]2c3c(OC(C)=O)c(C)c4c(c3[C@H](COC1=O)N1[C@@H]2[C@H]2c3c(cc(C)c(OC)c3O)C[C@@H]([C@@H]1O)N2C)OCO4 [Batch 1711189-2]	2.5

Reported Water Content of COc1ccc2[nH]c3c(c2c1)CCN[C@]31CS[C@@H]2c3c(OC(C)=O)c(C)c4c(c3[C@H](COC1=O)N1[C@@H]2[C@H]2c3c(cc(C)c(OC)c3O)C[C@@H]([C@@H]1O)N2C)OCO4 [Batch R01] : 1.9

Reported Water Content of COc1ccc2[nH]c3c(c2c1)CCN[C@]31CS[C@@H]2c3c(OC(C)=O)c(C)c4c(c3[C@H](COC1=O)N1[C@@H]2[C@H]2c3c(cc(C)c(OC)c3O)C[C@@H]([C@@H]1O)N2C)OCO4 [Batch 1799069] : 2.0

Reported Water Content of COc1ccc2[nH]c3c(c2c1)CCN[C@]31CS[C@@H]2c3c(OC(C)=O)c(C)c4c(c3[C@H](COC1=O)N1[C@@H]2[C@H]2c3c(cc(C)c(OC)c3O)C[C@@H]([C@@H]1O)N2C)OCO4 [Batch R04] : 2.6

Reported Water Content of COc1ccc2[nH]c3c(c2c1)CCN[C@]31CS[C@@H]2c3c(OC(C)=O)c(C)c4c(c3[C@H](COC1=O)N1[C@@H]2[C@H]2c3c(cc(C)c(OC)c3O)C[C@@H]([C@@H]1O)N2C)OCO4 [Batch R03] : 1.7

Reported Water Content of COc1ccc2[nH]c3c(c2c1)CCN[C@]31CS[C@@H]2c3c(OC(C)=O)c(C)c4c(c3[C@H](COC1=O)N1[C@@H]2[C@H]2c3c(cc(C)c(OC)c3O)C[C@@H]([C@@H]1O)N2C)OCO4 [Batch P05] : 2.1

Reported Water Content of COc1ccc2[nH]c3c(c2c1)CCN[C@]31CS[C@@H]2c3c(OC(C)=O)c(C)c4c(c3[C@H](COC1=O)N1[C@@H]2[C@H]2c3c(cc(C)c(OC)c3O)C[C@@H]([C@@H]1O)N2C)OCO4 [Batch R02] : 2.0

Reported Water Content of COc1ccc2[nH]c3c(c2c1)CCN[C@]31CS[C@@H]2c3c(OC(C)=O)c(C)c4c(c3[C@H](COC1=O)N1[C@@H]2[C@H]2c3c(cc(C)c(OC)c3O)C[C@@H]([C@@H]1O)N2C)OCO4 [Batch 1711182-2] : 2.4

* * *

assay: physchem; settings: monopotassium phosphate buffer, pH 4, aqueous buffer
measuredAttribute: solubility
Please give the number followed by its unit.

Reported solubility of COc1ccc2[nH]c3c(c2c1)CCN[C@]31CS[C@@H]2c3c(OC(C)=O)c(C)c4c(c3[C@H](COC1=O)N1[C@@H]2[C@H]2c3c(cc(C)c(OC)c3O)C[C@@H]([C@@H]1O)N2C)OCO4 [lurbinectedin, Lurbinectedin] : 210 µg/mL

* * *

experiment: physchem; settings: sodium lactate buffer, pH 4, aqueous buffer
measuredAttribute: solubility (µg/mL)
Respond numerically; units are µg/mL and should not be typed.

Reported solubility of COc1ccc2[nH]c3c(c2c1)CCN[C@]31CS[C@@H]2c3c(OC(C)=O)c(C)c4c(c3[C@H](COC1=O)N1[C@@H]2[C@H]2c3c(cc(C)c(OC)c3O)C[C@@H]([C@@H]1O)N2C)OCO4 : 900
